B1: TPR 5TU (parent)
chain: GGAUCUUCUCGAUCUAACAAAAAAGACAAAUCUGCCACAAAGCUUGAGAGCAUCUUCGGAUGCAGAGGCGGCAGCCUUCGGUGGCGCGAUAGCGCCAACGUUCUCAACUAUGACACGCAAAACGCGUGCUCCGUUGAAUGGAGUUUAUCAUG

Variants of: B1
Protocol description: polymerase ribozyme fitness, log enrichment relative to wild type (log ratio); higher = more active; in vitro selection for triplet polymerase activity
Fewer inactive variants are shown than the library holds.
Listed variants paired with reported polymerase ribozyme fitness (log ratio)
Answer using only a numeral; do not append any unit.

Solved entries:
U31C U55A G86C | -2.47
A107G G141C | -3.86
U56C C79U | -1.8
C114U G124U | -3.13
U56G G141U | 0.498

Inquiry: Output measured polymerase ribozyme fitness (log ratio) for this item: G58C C72U A98G
Reply text: 0.461

Inquiry: Please indicate polymerase ribozyme fitness (log ratio) recorded for C85U C116G U145A
Reply text: -2.57

Inquiry: # return recorded polymerase ribozyme fitness (log ratio) for input G48A A150U
Reply text: -0.592

Inquiry: For the variant C18G G50U G88A , report polymerase ribozyme fitness (log ratio).
Reply text: -4.08

Inquiry: Answer with the recorded polymerase ribozyme fitness (log ratio) of C5U A20C G59A A60G C69A A98G only.
Reply text: -2.12

Inquiry: Note down polymerase ribozyme fitness (log ratio) recorded for C85U G143C
Reply text: -1.66

Inquiry: Report polymerase ribozyme fitness (log ratio), nothing else, for this variant: A16C C99G C125A
Reply text: -2.16

Inquiry: Query polymerase ribozyme fitness (log ratio) for G88A C116U
Reply text: -4.05

Inquiry: State its polymerase ribozyme fitness (log ratio): C85G C129G
Reply text: -4.11

Inquiry: // Input: C32U A52G U55G G94C . Output its polymerase ribozyme fitness (log ratio) only.
Reply text: -3.43

Inquiry: Query polymerase ribozyme fitness (log ratio) for C14G U55A C96U
Reply text: -3.27

Inquiry: Answer with reported polymerase ribozyme fitness (log ratio) of G50A U55G C87U
Reply text: -1.24

Inquiry: Provide only the value of recorded polymerase ribozyme fitness (log ratio) for C93A C99G
Reply text: -3.88

Inquiry: Supply reported polymerase ribozyme fitness (log ratio) belonging to this variant: A26C C87U
Reply text: -1.69

Inquiry: Answer with the recorded polymerase ribozyme fitness (log ratio) for the variant listed here: C54U C93U C105G G126C
Reply text: -2.01

Inquiry: Kindly indicate its recorded polymerase ribozyme fitness (log ratio). Item: C76U C87U
Reply text: -0.242

Inquiry: Tell me measured polymerase ribozyme fitness (log ratio) for U56A U61G please.
Reply text: -1.7

Inquiry: Output measured polymerase ribozyme fitness (log ratio) for this item: C72G C105U
Reply text: -3.5
